# Tested Target: hPR (Homo sapiens, UniProt P06401)
# Sequence (P06401 whole entry): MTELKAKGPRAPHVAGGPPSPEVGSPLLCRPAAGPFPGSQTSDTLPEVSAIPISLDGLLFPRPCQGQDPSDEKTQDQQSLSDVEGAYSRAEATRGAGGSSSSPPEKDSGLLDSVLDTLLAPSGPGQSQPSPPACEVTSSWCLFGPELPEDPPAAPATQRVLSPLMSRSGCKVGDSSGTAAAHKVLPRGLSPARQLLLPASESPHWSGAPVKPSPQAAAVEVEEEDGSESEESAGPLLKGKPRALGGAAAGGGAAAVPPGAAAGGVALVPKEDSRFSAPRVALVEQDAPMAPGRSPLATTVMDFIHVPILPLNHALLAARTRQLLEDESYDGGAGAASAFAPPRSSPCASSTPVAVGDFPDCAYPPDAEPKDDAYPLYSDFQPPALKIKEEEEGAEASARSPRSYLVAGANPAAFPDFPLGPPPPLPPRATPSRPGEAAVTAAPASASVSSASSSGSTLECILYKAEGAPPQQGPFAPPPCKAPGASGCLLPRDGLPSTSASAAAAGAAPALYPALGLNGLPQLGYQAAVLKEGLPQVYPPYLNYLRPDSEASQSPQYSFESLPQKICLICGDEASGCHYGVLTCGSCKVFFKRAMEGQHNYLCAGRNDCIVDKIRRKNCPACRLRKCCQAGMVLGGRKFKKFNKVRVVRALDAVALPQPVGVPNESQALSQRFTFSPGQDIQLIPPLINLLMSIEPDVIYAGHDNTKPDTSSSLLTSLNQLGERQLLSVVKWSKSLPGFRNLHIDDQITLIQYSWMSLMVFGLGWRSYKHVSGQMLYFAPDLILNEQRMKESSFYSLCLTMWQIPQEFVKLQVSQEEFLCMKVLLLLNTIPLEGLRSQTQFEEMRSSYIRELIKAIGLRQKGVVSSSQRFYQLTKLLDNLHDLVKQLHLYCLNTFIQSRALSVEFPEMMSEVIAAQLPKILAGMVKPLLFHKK
# Method Notes: hPR cotransfection assay in CV-1 cells, agonist mode
# Type: cell-based
# Particulars: CV-1 cells; relative to maximal response of progesterone as 100%
Metric: hPR Agonist CV-1 Cells Eff. (%)
# output: bare number, implied unit %

Illustrative cases are given below, each with its answer.
[[record]]
molecule = "CC(=O)O[C@]1(C(C)=O)CC[C@H]2[C@@H]3C[C@H](C)C4=CC(=O)CC[C@]4(C)[C@H]3CC[C@@]21C [MPA, reference compound]"
units_of_measure = "%"
value_reported = 88

[[record]]
molecule = "CC1=CC(C)(C)Nc2ccc3c(c21)C(c1ccc(Cl)c(C)c1)Oc1c(F)cc(F)cc1-3 (single isomer, unassigned; (+)) [Compound 39]"
units_of_measure = "%"
value_reported = 26

[[record]]
molecule = "C#C[C@]1(O)CC[C@H]2[C@@H]3CCC4=CC(=O)CC[C@@H]4[C@H]3C(=C)C[C@@]21CC [3-ketodesogestrel, reference compound]"
units_of_measure = "%"
value_reported = 190


### Prompt Fill in reported hPR Agonist CV-1 Cells Eff. (%) for this entry: CC1=CC(C)(C)Nc2ccc3c(c21)C(c1ccc(Cl)c(C)c1)Oc1c(F)cc(F)cc1-3 (single isomer, unassigned; (-)) [Compound 38]
### Response 110
